# reported Redroot pigweed plant response rating; entries follow
- Tested on: pigweed
- TEST_SUMMARY: Test B pre/postemergence pigweed
- Assay type: in vivo, Amaranthus retroflexus
- RECORDED_CONDITIONS: Postemergence, Rate 500 g/ha; scale of 0 to 10 where 0 is no effect and 10 is complete control
Give the figure only, with no unit attached.

Ask | So what does the record say about Redroot pigweed plant response rating for CC(C)N(C(=O)n1oc(=O)n(C(C)C2CC2)c1=O)c1ccc(F)cc1 (stereo not shown) [Compound 404] ?
Reply | 7

Ask | Then CC(C)N(C(=O)n1oc(=O)n(C2CCOCC2)c1=O)c1ccccc1 [Compound 416] ?
Reply | 7

Ask | Then Cc1nc(Cl)sc1C(C)n1c(=O)on(C(=O)N(c2ccc(Cl)cc2)C(C)C)c1=O (stereo not shown) [Compound 406] ?
Reply | 0

Ask | Then CC(C)N(C(=O)n1oc(=O)n(CNC(=O)c2ccccc2)c1=O)c1ccc(F)cc1 [Compound 445] ?
Reply | 4
